- targetSystem: human IBAT (Homo sapiens, UniProt Q12908)
- Construct: Bases 599 to 1645 correspond to the complete coding region of human IBAT
- Sequence (Q12908 whole entry): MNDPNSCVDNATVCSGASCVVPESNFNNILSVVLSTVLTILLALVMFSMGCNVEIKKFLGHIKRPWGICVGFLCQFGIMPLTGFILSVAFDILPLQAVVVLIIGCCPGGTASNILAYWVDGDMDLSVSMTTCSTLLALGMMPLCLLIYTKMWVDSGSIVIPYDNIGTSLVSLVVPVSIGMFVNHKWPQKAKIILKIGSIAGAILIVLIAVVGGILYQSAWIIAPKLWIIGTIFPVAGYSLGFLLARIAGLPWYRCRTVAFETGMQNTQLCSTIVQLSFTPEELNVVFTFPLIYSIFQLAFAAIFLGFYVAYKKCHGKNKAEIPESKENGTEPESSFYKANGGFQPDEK
- experimentalProtocol: In vitro IBAT inhibition assay: IBAT-dependent uptake of [3H]-taurocholic acid into CHO-hIBAT cells
- conditionInfo: 10 μM taurocholic acid, 60 min at room temperature, read-out: IC-50 (human IBAT)
pIC50: −log10 of the molar value.
// reported pIC50 per item
assayMetric: pIC50

• CCCC[C@]1(CC)CS(=O)(=O)c2ccc(N(C)C)cc2[C@@H](c2cccc(NC(=O)N[C@@H]3O[C@H](COCc4ccccc4)[C@@H](O)[C@H](OCc4ccccc4)[C@H]3O)c2)[C@H]1O = 8.46
• CCCC[C@]1(CC)CS(=O)(=O)c2ccc(N(C)C)cc2[C@@H](c2cccc(NC(=O)N[C@@H]3O[C@H](COS(=O)(=O)O)[C@@H](O)[C@H](OCc4ccccc4)[C@H]3O)c2)[C@H]1O = 8.62
• CCCC[C@]1(CC)CS(=O)(=O)c2ccc(N(C)C)cc2[C@@H](c2cccc(NC(=O)N[C@@H]3O[C@H](COS(=O)(=O)O)[C@@H](OS(=O)(=O)O)[C@H](OCc4ccccc4)[C@H]3O)c2)[C@H]1O = 8.70
• CCCC[C@]1(CC)CS(=O)(=O)c2ccc(N(C)C)cc2[C@@H](c2cccc(NC(=O)N[C@@H]3O[C@H](CO)[C@@H](O)[C@H](OCc4ccccc4)[C@H]3O)c2)[C@H]1O = 8.36
• CCCCC1(CCCC)CS(=O)(=O)c2ccc(N(C)C)cc2[C@@H](c2cccc(NC(=O)N[C@@H]3O[C@H](COS(=O)(=O)O)[C@@H](O)[C@H](OCc4ccccc4)[C@H]3O)c2)[C@H]1O = 7.97
• CCCCC1(CCCC)CS(=O)(=O)c2ccc(N(C)C)cc2[C@@H](c2cccc(NC(=O)N[C@@H]3O[C@H](CO)[C@@H](O)[C@H](OCc4ccccc4)[C@H]3O)c2)[C@H]1O = 8.16
